Each recorded value in this set is attributed to BindingDB's records for PubMed 11454940.

Assay target: Gamma-aminobutyric acid receptor subunit alpha-3 (Rattus norvegicus, UniProt P20236)
Sequence (P20236 whole entry I342M/K409L): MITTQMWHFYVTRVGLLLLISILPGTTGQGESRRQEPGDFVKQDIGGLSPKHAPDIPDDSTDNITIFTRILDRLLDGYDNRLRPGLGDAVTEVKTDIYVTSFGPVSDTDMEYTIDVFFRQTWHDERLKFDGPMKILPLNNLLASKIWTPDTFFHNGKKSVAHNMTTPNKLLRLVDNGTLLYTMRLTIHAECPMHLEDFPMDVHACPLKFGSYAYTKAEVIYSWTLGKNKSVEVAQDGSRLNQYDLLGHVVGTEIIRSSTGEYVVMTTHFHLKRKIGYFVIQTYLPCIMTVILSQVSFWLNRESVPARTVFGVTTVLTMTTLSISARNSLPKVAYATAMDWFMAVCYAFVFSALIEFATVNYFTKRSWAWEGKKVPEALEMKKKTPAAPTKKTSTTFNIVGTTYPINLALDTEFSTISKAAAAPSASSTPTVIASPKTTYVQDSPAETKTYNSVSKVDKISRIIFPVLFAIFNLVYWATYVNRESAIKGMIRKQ
Reported property: Ki (nM)
Give bare numbers, in nM.

# return Ki of Cn1c2ccc(F)cc2c2c(C(=O)N3CCCC3)cn(-c3ccccc3)c(=O)c21 (system: Gamma-aminobutyric acid receptor subunit alpha-3 (Rattus norvegicus, UniProt P20236)) 80.3
